Molecular target: CDK9/cyclin T1 (Homo sapiens, UniProt P50750)
Sequence (P50750 whole entry, species assumed): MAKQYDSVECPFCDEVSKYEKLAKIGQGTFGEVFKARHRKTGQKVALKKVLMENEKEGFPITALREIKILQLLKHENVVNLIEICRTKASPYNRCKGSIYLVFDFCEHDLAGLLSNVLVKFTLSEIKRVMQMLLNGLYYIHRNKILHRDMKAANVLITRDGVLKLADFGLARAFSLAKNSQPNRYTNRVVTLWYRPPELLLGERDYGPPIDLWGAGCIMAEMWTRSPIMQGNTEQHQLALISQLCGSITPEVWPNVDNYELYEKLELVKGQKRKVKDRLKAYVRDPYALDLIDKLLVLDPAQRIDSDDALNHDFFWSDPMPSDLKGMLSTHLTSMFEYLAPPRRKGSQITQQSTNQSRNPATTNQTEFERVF
Sequence (O60563 whole entry partner, species assumed): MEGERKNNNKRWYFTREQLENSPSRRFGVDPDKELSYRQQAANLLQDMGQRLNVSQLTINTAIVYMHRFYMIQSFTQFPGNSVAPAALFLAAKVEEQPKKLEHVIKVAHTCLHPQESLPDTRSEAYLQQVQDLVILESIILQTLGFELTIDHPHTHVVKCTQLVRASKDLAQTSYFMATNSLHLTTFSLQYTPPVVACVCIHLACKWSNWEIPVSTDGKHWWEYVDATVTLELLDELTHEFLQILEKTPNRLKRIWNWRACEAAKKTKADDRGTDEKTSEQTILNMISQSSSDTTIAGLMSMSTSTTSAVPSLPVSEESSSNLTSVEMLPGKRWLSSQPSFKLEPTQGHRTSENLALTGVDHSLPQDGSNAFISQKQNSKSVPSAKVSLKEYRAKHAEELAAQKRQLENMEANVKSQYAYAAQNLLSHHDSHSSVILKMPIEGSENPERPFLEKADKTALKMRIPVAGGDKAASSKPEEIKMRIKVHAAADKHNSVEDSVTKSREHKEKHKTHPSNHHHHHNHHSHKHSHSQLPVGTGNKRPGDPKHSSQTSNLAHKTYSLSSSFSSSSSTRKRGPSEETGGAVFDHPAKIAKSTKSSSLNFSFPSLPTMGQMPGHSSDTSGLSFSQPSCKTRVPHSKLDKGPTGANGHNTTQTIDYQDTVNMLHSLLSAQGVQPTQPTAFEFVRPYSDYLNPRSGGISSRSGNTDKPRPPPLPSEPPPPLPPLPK
Assay: Kinase assay, radioactive phosphate incorporation, CDK9/cyclin T1
Conditions: 100 μM ATP, 30° C.; read-out: Kinase inhibition IC50 CDK9/cyclin T1
property_name: IC50 (nM)

[A] NC(=O)C1CCCN(Cc2cccc(-c3ccnc(Nc4cccc([N+](=O)[O-])c4)n3)c2)C1 (stereo not drawn)
[B] N#Cc1cccc(-c2ccnc(Nc3cccc(O)c3)n2)c1
Request: Given A and B , report the one with the higher recorded IC50. Your choice should be expressed through its label.
Result: B
(B: 110 nM, A: 1 nM)

[I] COc1ccc(Nc2nccc(-c3cccc(Cn4cncn4)c3)n2)cc1
[II] COc1ccc(OC)c(-c2ccnc(Nc3ccc(O)cc3)n2)c1
Request: Given I and II , report the one with the higher recorded IC50. Your choice should be expressed through its label.
Result: II
(II: 25000 nM, I: 220 nM)

[P] c1cc(Cn2cncn2)cc(-c2ccnc(Nc3ccc(N4CCOCC4)cc3)n2)c1
[Q] CC(=O)Nc1cccc(-c2ccnc(Nc3cccc(CO)c3)n2)c1
Request: Given P and Q , report the one with the higher recorded IC50. Your choice should be expressed through its label.
Result: P

[P] CC(=O)Nc1cccc(-c2ccnc(Nc3cccc(O)c3)n2)c1
[Q] O=[N+]([O-])c1cccc(Nc2nccc(-c3cccc(CN4CCOCC4)c3)n2)c1
Request: Given P and Q , report the one with the higher recorded IC50. Your choice should be expressed through its label.
Result: P

* * *

Molecular target: CDK9/cyclin T1 (Homo sapiens, UniProt P50750)
Assay: Kinase assay, radioactive phosphate incorporation, CDK9/cyclin T1
Settings: 100 μM ATP, 30° C.; read-out: Kinase inhibition IC50 CDK9/cyclin T1
pIC50: −log10 of the molar value.
property_name: pIC50

Clc1ccc(Nc2nccc(-c3cccc(CNCc4ccccc4)c3)n2)cn1 ... 5.92
COc1ccc(-c2ccnc(Nc3ccc(O)cc3)n2)cc1 ... 7.70
COc1cccc(-c2ccnc(Nc3ccc(O)cc3)n2)c1 ... 8.22

[I] O=[N+]([O-])c1cccc(Nc2nccc(-c3cccc(CN4CCCC4CNc4ccccc4)c3)n2)c1 (centres unmarked)
[II] COCCOc1ccc(Nc2nccc(-c3cccc(N)c3)n2)cc1
Request: Pick one, I or II : lowest reported pIC50. Your choice should be expressed through its label.
Result: I
(I: 6.89, II: 7.74)

* * *

Test system: A549
Assay: 72-h MTT cytotoxicity assay, A549
Assay type: cell-based
Conditions: Homo sapiens, read-out: 72-h MTT IC50 A549, A549 cell line
property_name: pIC50
Notebook: values listed as pIC50 are -log10 of the concentration (mol/L).

COc1cccc(Nc2nccc(-c3cccc(Cn4cncn4)c3)n2)c1 [Compound 35] ... 4.82
COc1ccc(Nc2nccc(-c3cccc(CN4CCN(C)CC4)c3)n2)cn1 [Compound 58] ... 5.15
CN1CCN(Cc2cccc(-c3ccnc(Nc4cccc([N+](=O)[O-])c4)n3)c2)CC1 [Compound 54] ... 5.96
CN(C)Cc1cccc(-c2ccnc(Nc3cccc(O)c3)n2)c1 [Compound 80] ... 6.07
CCN(Cc1cccc(-c2ccnc(Nc3cccc([N+](=O)[O-])c3)n2)c1)C(C)C [Compound 46] ... 6.02

Request: Report pIC50 from A549 testing of COCCOc1ccc(Nc2nccc(-c3cccc(N)c3)n2)cc1 [Compound 3]
Result: 5.74

Request: Report pIC50 from A549 testing of CN(C)c1ccc(Nc2nccc(-c3cccc(Cn4cncn4)c3)n2)cc1 [Compound 43]
Result: 4.83

Request: Report pIC50 from A549 testing of COc1ccc(Nc2nccc(-c3cccc(C#N)c3)n2)cn1 [Compound 51]
Result: 4.45

Request: Report pIC50 from A549 testing of COc1ccc(OC)c(-c2ccnc(Nc3ccc(O)cc3)n2)c1 [Compound 45]
Result: 4.59
